Target: T1, EcSduA (Shedu SduA) (Escherichia coli, UniProt PDB:8PS5_1 1-411)
T1 sequence: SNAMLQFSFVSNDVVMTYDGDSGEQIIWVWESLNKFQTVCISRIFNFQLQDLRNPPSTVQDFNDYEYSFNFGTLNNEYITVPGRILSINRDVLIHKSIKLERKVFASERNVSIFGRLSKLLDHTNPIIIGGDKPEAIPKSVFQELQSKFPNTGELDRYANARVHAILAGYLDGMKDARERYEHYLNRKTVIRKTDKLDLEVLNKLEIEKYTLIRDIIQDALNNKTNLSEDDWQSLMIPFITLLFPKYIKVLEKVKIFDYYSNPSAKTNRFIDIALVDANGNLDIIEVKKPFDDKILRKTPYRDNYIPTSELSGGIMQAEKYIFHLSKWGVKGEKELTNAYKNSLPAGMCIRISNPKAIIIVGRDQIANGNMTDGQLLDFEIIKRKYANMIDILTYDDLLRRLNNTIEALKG
Assay: fluorescence polarization
result.type: pKd
# log scale: pKd equals minus log10 of the concentration in mol/L

INPUT: Would you kindly share the measured pKd for 40 bp dsDNA oLL321/oLL322 (dsDNA) DNA 1: GATACCAGCTCTATGTTGACCTCTCAGATCGGCACTACTT DNA 2: AAGTAGTGCCGATCTGAGAGGTCAACATAGAGCTGGTATC ?
OUTPUT: 7.92

Recorded values, source paper doi:10.1101/2023.08.10.552762.
